Condition notes: 333.15 K, Ring tensiometer
Exercise: for every item that follows, state its recorded surface tension liquid-gas.
Express your answer in mN/m, writing the number without its unit.

[Q] Looking for the measured surface tension liquid-gas of CC[N+](C)(C)CCOC.O=S(=O)([N-]S(=O)(=O)C(F)(F)F)C(F)(F)F , can you help?
[A] 43.46

[Q] Looking for the measured surface tension liquid-gas of COCC[N+]1(C)CCOCC1.O=S(=O)([N-]S(=O)(=O)C(F)(F)F)C(F)(F)F , can you help?
[A] 46.3

[Q] Looking for the measured surface tension liquid-gas of CCC[N+](C)(C)CC.O=S(=O)([N-]S(=O)(=O)C(F)(F)F)C(F)(F)F , can you help?
[A] 43.34

[Q] Looking for the measured surface tension liquid-gas of COCC[N+]1(C)CCCC1.O=S(=O)([N-]S(=O)(=O)C(F)(F)F)C(F)(F)F , can you help?
[A] 45

[Q] Looking for the measured surface tension liquid-gas of COCC[N+]1(C)CCCCC1.O=S(=O)([N-]S(=O)(=O)C(F)(F)F)C(F)(F)F , can you help?
[A] 40.98

* * *

Condition notes: 298.15 K; 101.33 kPa; Liquid; Vibrating tube method
Exercise: for every item that follows, state its recorded mass density.
Express your answer in kg/m3, writing the number without its unit.

[Q] Looking for the measured mass density of COCC[N+]1(C)CCCCC1.O=S(=O)([N-]S(=O)(=O)C(F)(F)F)C(F)(F)F , can you help?
[A] 1433.2

[Q] Looking for the measured mass density of CCC[N+](C)(C)CC.O=S(=O)([N-]S(=O)(=O)C(F)(F)F)C(F)(F)F , can you help?
[A] 1403

[Q] Looking for the measured mass density of COCC[N+]1(C)CCCC1.O=S(=O)([N-]S(=O)(=O)C(F)(F)F)C(F)(F)F , can you help?
[A] 1453

[Q] Looking for the measured mass density of COCC[N+]1(C)CCOCC1.O=S(=O)([N-]S(=O)(=O)C(F)(F)F)C(F)(F)F , can you help?
[A] 1500.2

[Q] Looking for the measured mass density of CC[N+](C)(C)CCOC.O=S(=O)([N-]S(=O)(=O)C(F)(F)F)C(F)(F)F , can you help?
[A] 1424.9

* * *

Condition notes: 313.15 K; 101.33 kPa; Liquid; Concentric cylinders viscometry
Rule: viscosity below 40 mPa·s gives MET. Equal to or above 40 mPa·s gives NOT MET.

[Q] I wonder whether COCC[N+]1(C)CCOCC1.O=S(=O)([N-]S(=O)(=O)C(F)(F)F)C(F)(F)F has viscosity below 40 mPa·s. Can you tell?
[A] NOT MET

[Q] I wonder whether COCC[N+]1(C)CCCCC1.O=S(=O)([N-]S(=O)(=O)C(F)(F)F)C(F)(F)F has viscosity below 40 mPa·s. Can you tell?
[A] MET

[Q] I wonder whether COCC[N+]1(C)CCCC1.O=S(=O)([N-]S(=O)(=O)C(F)(F)F)C(F)(F)F has viscosity below 40 mPa·s. Can you tell?
[A] MET

[Q] I wonder whether CCC[N+](C)(C)CC.O=S(=O)([N-]S(=O)(=O)C(F)(F)F)C(F)(F)F has viscosity below 40 mPa·s. Can you tell?
[A] MET

[Q] I wonder whether CC[N+](C)(C)CCOC.O=S(=O)([N-]S(=O)(=O)C(F)(F)F)C(F)(F)F has viscosity below 40 mPa·s. Can you tell?
[A] MET
